test system: MV4-11 cell; experiment: MV4-11 cell proliferation assay (CellTiter-Glo); format: cell-based, human; details: Homo sapiens, MV4-11 cells, 72 hours, read-out: IC50 inhibiting MV4-11 cell proliferation
Each entry below carries its reported pIC50.
Friendly reminder that pIC50 comes from taking -log10 of the concentration in mol/L.

Here are 5 molecules together with their reported answers.
molecule="CC(C)(C)c1cc(NC(=O)Nc2ccc(-c3cn4c(n3)sc3nc(NCCN5C[C@@H]6C[C@H]5CO6)ncc34)cc2)no1 [Compound 97-3]" numeric_value=10.15
molecule="CC(C)(C)c1cc(NC(=O)Nc2ccc(-c3cn4c(n3)sc3nc(OCCN5C[C@@H]6C[C@H]5CO6)ccc34)cc2)no1 [compound 28-15]" numeric_value=10.30
molecule="CC(C)(C)c1cc(NC(=O)Nc2ccc(-c3cn4c(n3)sc3nc(NCC5(N)CC5)ccc34)cc2)no1 [compound 63-1]" numeric_value=9.02
molecule="CNC1(COc2ccc3c(c2)sc2cc(-c4ccc(NC(=O)Nc5cc(C(C)(C)C)on5)cc4)cn23)CC1 [compound 80]" numeric_value=8.33
molecule="CC(C)(C)c1cc(NC(=O)Nc2ccc(-c3cn4c(n3)sc3nc(N5CCNCC5)ncc34)cc2)no1 [compound 8-4]" numeric_value=8.96

Quick check: pIC50 of CC(=O)NC1(COc2ccc3c(n2)sc2nc(-c4ccc(NC(=O)Nc5cc(C(C)(C)C)on5)cc4)cn23)CC1 [compound 35-2] ? 9.28

Here is the next molecule: CC(C)(C)c1cc(NC(=O)Nc2ccc(-c3cn4c(n3)sc3cc(OCCN5CCOCC5)ccc34)cc2)no1 [Quizartinib, reference compound] 9.25

###

target: FLT3 (Homo sapiens (Human)); assay: FLT3 kinase inhibition assay (Caliper mobility shift assay); assay type: biochemical; conditions: 0.9 nM purified FLT3, 97 uM ATP, 28° C., 60 min; read-out: IC50 inhibiting the FLT3 kinase
Form field: IC50 (one value per entry).
# number then unit; no other words

Item "CC(C)(C)c1cc(NC(=O)Nc2ccc(-c3cn4c(n3)sc3nc(OCCN5C[C@@H]6C[C@H]5CO6)ccc34)cc2)no1" has what recorded IC50? 68 nM

Next entry: "CC(C)(C)c1cc(NC(=O)Nc2ccc(-c3cn4c(n3)sc3nc(OCCCN5CCOCC5)ccc34)cc2)no1" 47 nM

Then this molecule: "CC(C)(C)c1cc(NC(=O)Nc2ccc(-c3cn4c(n3)sc3nc(OCCN5C[C@@H]6C[C@H]5CN6)ccc34)cc2)no1" 1.2 nM

###

target: FLT3 (Homo sapiens (Human), UniProt P36888); assay: FLT3 kinase inhibition assay (Caliper mobility shift assay); type: biochemical; settings: 0.9 nM purified FLT3, 97 uM ATP, 28° C., 60 min; read-out: IC50 inhibiting the FLT3 kinase
Sequence (P36888 27-993): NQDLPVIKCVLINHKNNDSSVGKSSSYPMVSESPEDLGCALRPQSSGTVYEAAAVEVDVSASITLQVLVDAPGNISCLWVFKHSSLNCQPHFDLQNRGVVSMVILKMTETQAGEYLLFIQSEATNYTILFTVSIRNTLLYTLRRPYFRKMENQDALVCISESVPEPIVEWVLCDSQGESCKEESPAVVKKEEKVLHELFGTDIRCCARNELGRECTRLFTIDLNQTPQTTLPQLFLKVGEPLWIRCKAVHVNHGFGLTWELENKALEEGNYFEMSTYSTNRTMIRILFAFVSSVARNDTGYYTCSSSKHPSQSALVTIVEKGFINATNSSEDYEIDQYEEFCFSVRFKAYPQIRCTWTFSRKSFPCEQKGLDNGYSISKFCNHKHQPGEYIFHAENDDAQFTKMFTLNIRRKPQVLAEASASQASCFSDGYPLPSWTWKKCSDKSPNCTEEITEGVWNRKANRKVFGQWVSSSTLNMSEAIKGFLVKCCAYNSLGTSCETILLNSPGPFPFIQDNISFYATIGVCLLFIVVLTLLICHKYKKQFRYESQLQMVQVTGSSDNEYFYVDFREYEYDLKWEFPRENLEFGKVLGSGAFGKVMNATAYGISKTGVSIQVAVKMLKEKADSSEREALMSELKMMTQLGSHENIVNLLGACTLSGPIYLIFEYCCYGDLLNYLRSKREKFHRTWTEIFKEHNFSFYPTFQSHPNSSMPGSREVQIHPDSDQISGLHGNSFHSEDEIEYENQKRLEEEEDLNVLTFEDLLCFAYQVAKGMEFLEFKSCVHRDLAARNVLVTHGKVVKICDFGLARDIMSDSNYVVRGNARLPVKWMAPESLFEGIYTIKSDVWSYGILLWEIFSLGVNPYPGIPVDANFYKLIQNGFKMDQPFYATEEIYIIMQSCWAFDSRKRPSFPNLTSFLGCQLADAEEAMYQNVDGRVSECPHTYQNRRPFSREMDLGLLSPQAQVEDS
property-measured: pIC50
Units for pIC50: none; it is -log10 of a concentration expressed in mol/L.

A selection of reference data follows.
smiles_record=CC(C)(C)c1cc(NC(=O)Nc2ccc(-c3cn4c(n3)sc3nc(N5CCC(N6CCOCC6)CC5)ccc34)cc2)no1 assay_target="FLT3 (Homo sapiens (Human), UniProt P36888)" property_measured=pIC50 numeric_value=7.47
smiles_record=CC(C)(C)c1cc(NC(=O)Nc2ccc(-c3cn4c(n3)sc3nc(N5CCOCC5)ncc34)cc2)no1 assay_target="FLT3 (Homo sapiens (Human), UniProt P36888)" property_measured=pIC50 numeric_value=7.72
smiles_record=CC(C)(C)c1cc(NC(=O)Nc2ccc(-c3cn4c(n3)sc3nc(OCC5CCNCC5)ccc34)cc2)no1 assay_target="FLT3 (Homo sapiens (Human), UniProt P36888)" property_measured=pIC50 numeric_value=7.96

Then this compound:
Tell me the measured pIC50 of "CC(C)(C)c1cc(NC(=O)Nc2ccc(-c3cn4c(n3)sc3nc(NCCN5CCOCC5)ccc34)cc2)no1" , please. 7.54

###

system: MV4-11 cell; assay: MV4-11 cell proliferation assay (CellTiter-Glo); type: cell-based, human; details: Homo sapiens, MV4-11 cells, 72 hours, read-out: IC50 inhibiting MV4-11 cell proliferation
Please use the following IC50 ranges when assigning a class: bin 1 (below 0.3 nM), bin 2 (0.3 nM to below 0.6 nM), bin 3 (0.6 nM or more)

Record CC(C)(C)c1cc(NC(=O)Nc2ccc(-c3cn4c(n3)sc3nc(N5CCOCC5)ccc34)cc2)no1 [compound 46] — which class? bin 3

// repeat for CC(C)(C)c1cc(NC(=O)Nc2ccc(-c3cn4c(n3)sc3nc(OCC5(NS(C)(=O)=O)CC5)ccc34)cc2)no1 [compound 35-3] and report bin 3

What do you get for CNC1(CNc2ccc3c(n2)sc2nc(-c4ccc(NC(=O)Nc5cc(C(C)(C)C)on5)cc4)cn23)CC1 [compound 63-2] ? bin 2

Let us now turn to CC(C)(C)c1cc(NC(=O)Nc2ccc(-c3cn4c(n3)sc3nc(OCCCN5CCOCC5)ccc34)cc2)no1 [compound 28-6] bin 2

Also need CN(CCN1CCOCC1)c1ccc2c(n1)sc1nc(-c3ccc(NC(=O)Nc4cc(C(C)(C)C)on4)cc3)cn12 [compound 53-2] , thanks. bin 2

Let us now turn to CC(C)(C)c1cc(NC(=O)Nc2ccc(-c3cn4c(n3)sc3nc(OCC5(N)CC5)ccc34)cc2)no1 [compound 35-1] bin 3

And what about the compound CC(C)(C)c1cc(NC(=O)Nc2ccc(-c3cn4c(n3)sc3nc(OC[C@@H]5CCCN5)ccc34)cc2)no1 [compound 35-4] ? bin 3

CC(C)(C)c1cc(NC(=O)Nc2ccc(-c3cn4c(n3)sc3nc(OCCN5CCNCC5)ccc34)cc2)no1 [compound 28-3] , same question. bin 2

Another: CC(C)(C)c1cc(NC(=O)Nc2ccc(-c3cn4c(n3)sc3nc(N5CCC(N6CCOCC6)CC5)ncc34)cc2)no1 [compound 8-6] bin 3

Now consider CC(C)(C)c1cc(NC(=O)Nc2ccc(-c3cn4c(n3)sc3nc(OCC5CNCCO5)ccc34)cc2)no1 (stereo not shown) [compound 28-12] and answer again. bin 2

Same lookup for CCN(CC)CCNc1ncc2c(n1)sc1nc(-c3ccc(NC(=O)Nc4cc(C(C)(C)C)on4)cc3)cn12 [Compound 97-2] , please. bin 2

Then what about the compound CN(C)CCNc1ncc2c(n1)sc1nc(-c3ccc(NC(=O)Nc4cc(C(C)(C)C)on4)cc3)cn12 [Compound 97-1] ? bin 1

And the next one, CCN(CC)CCOc1ccc2c(n1)sc1nc(-c3ccc(NC(=O)Nc4cc(C(C)(C)C)on4)cc3)cn12 [compound 28-14] ? bin 1

Same thing, different compound: CC(C)(C)c1cc(NC(=O)Nc2ccc(-c3cn4c(n3)sc3nc(NCCN5CCOCC5)ccc34)cc2)no1 [compound 53-1] bin 1

Entry to check: CC(C)(C)c1cc(NC(=O)Nc2ccc(-c3cn4c(n3)sc3nc(OCC5CNC5)ccc34)cc2)no1 [compound 28-11] bin 3

# iterate: CC(C)(C)c1cc(NC(=O)Nc2ccc(-c3cn4c(n3)sc3nc(OCCN5CCOCC5)ccc34)cc2)no1 [compound 28-1] bin 3

Next: CN1C[C@@H]2C[C@H]1CN2CCOc1ccc2c(n1)sc1nc(-c3ccc(NC(=O)Nc4cc(C(C)(C)C)on4)cc3)cn12 [compound 28-8] bin 1

Please answer likewise for CN(C)CCOc1ccc2c(n1)sc1nc(-c3ccc(NC(=O)Nc4cc(C(C)(C)C)on4)cc3)cn12 [compound 28-2] bin 1

// provenance: patent US9216997B2
